- testDescription: A CellTox Green Cytotoxicity Assay to monitor cytotoxicity in HepG2 cells - 16 hour (AID 1224876); further: nearly all actives have a fitted effect of over 45% in size
- reportedConditions: CellTox Green fluorescence; series mostly up to 76.8 µM
Records with an inconclusive call do not appear. Active and inactive are the calls of the source. The call rests on the fitted dose curve; in most records, active means well fitted activation curve with a large enough effect in the repeat runs; inconclusive means weak or mixed curves; inactive means flat fitted curve, though single readings scatter.
Outcomes: active, inactive

compound=Cc1cc(N=Nc2ccccc2C)ccc1N cat=inactive
compound=CCCCCCCCCCCCCCCCCCn1cc[n+](C)c1 cat=active
compound=Oc1ccc(C(=C(Cl)Cl)c2ccc(O)cc2)cc1 cat=inactive
compound=COc1ccc([N+](=O)[O-])cc1O cat=inactive
compound=C=CC(=O)OCC(COC(=O)C=C)(COC(=O)C=C)COC(=O)C=C cat=inactive
compound=ClCc1ccccc1CCl cat=inactive
compound="Clc1ccc(CSC(Cn2ccnc2)c2ccc(Cl)cc2Cl)cc1 (configuration not stated)" cat=inactive
compound=Oc1ccc(I)cc1 cat=inactive
compound=N#Cc1c(-c2ccc(Cl)cc2)[nH]c(C(F)(F)F)c1Br cat=inactive
compound="CN(CCCC(O)c1cccnc1)N=O (configuration not stated)" cat=inactive
compound=CC(=[OH+])/C=C(/C)[O-].CC(=[OH+])/C=C(\C)[O-].CC(=[OH+])/C=C(\C)[O-].[Al] cat=inactive
compound=Cc1cccc(OP(=O)(Oc2cccc(C)c2)Oc2cccc(C)c2)c1 cat=inactive
compound=C[C@]12CC[C@H]3[C@@H](CCC4=CC(=O)CC[C@@]43C)[C@@H]1CC[C@@H]2O cat=inactive
compound="CCCN(CC)CC1COC2(CCC(C(C)(C)C)CC2)O1 (configuration not stated)" cat=inactive
compound=[Cl][Sn]([c]1ccccc1)([c]1ccccc1)[c]1ccccc1 cat=active
compound=CCOC(=O)C1(c2ccccc2)CCN(CCC(C#N)(c2ccccc2)c2ccccc2)CC1 cat=inactive
compound=CCCCCCCCc1ccc(O)cc1 cat=active
compound=O=[N+]([O-])c1ccc(Oc2ccc(C(F)(F)F)cc2[N+](=O)[O-])cc1 cat=inactive
compound=CC(C)CCCCCCCOP(=O)(Oc1ccccc1)Oc1ccccc1 cat=inactive
compound="CC(Cl)CN(C)C (configuration not stated)" cat=inactive
compound=Oc1c(Cl)c(Cl)cc(Cl)c1Cl cat=inactive
compound=CC(C)CC(C)(c1ccc(O)cc1)c1ccc(O)cc1 cat=active
compound=ClC(Cl)=C(Cl)Cl cat=inactive
compound=Cc1cc(C(F)(C(F)(F)F)C(F)(F)F)ccc1NC(=O)c1cccc(I)c1C(=O)NC(C)(C)CS(C)(=O)=O cat=inactive
compound="BrCC(Br)c1ccccc1 (configuration not stated)" cat=inactive
compound=CCCCN(CCCC)C(=S)[S-].CCCCN(CCCC)C(=S)[S-].[Zn+2] cat=active
compound=O=C(NC(=O)c1c(F)cccc1F)Nc1cc(Cl)c(OC(F)(F)C(F)F)c(Cl)c1 cat=inactive
compound=COc1ccc(/C(=C/C(=O)N2CCOCC2)c2ccc(Cl)cc2)cc1OC cat=inactive
compound="COc1cccc2c1C(=O)c1c(O)c3c(c(O)c1C2=O)C[C@@](O)(C(=O)CO)CC3OC1CC(N2CCOC(OC)C2)C(O)C(C)O1 (some centres not stated)" cat=active
compound=O=[N+]([O-])c1ccc2ccc3cccc4ccc1c2c34 cat=inactive
compound=FC(Cl)(Cl)Cl cat=inactive
compound=ClC1=C(Cl)[C@]2(Cl)[C@@H]3[C@@H](Cl)[C@H](Cl)C[C@@H]3[C@@]1(Cl)C2(Cl)Cl cat=inactive
compound=C[As+](C)(C)CC(=O)[O-] cat=inactive
compound="CC(C)CC(C)N (configuration not stated)" cat=inactive
compound=Cn1[nH]nnc1=S cat=inactive
compound=CCS(=O)(=O)c1cccnc1S(=O)(=O)NC(=O)Nc1nc(OC)cc(OC)n1 cat=inactive
compound=N#Cc1ccccc1Cl cat=inactive
compound="O=C1c2ccccc2C(=O)C1C(=O)C(c1ccccc1)c1ccc(Cl)cc1 (configuration not stated)" cat=active
compound=N#Cc1ccccc1N cat=inactive
compound=CC(C)CCCCCOC(=O)c1ccccc1C(=O)OCCCCCC(C)C cat=inactive
compound=Nc1ccc([N+](=O)[O-])cc1Cl cat=inactive
compound=CC(=O)C(Cl)(Cl)Cl cat=inactive
compound=S=C=Nc1cccc2ccccc12 cat=inactive
compound=O=[N+]([O-])O.O=[N+]([O-])O.[Cd] cat=inactive
compound=CCOP(=S)(OCC)SCS(=O)(=O)C(C)(C)C cat=inactive
compound="Clc1ccc(COC(Cn2ccnc2)c2ccc(Cl)cc2Cl)cc1 (configuration not stated)" cat=active
compound=Nc1ccc(Cl)cc1C(=O)c1ccccc1 cat=inactive

* * *

- testDescription: qHTS assay to identify small molecule antagonists of the estrogen related receptor signaling pathway with the pleiotropic PPARgamma coactivator (PGC) from Tox21 10K library - cell viability counter screen (AID 1224840); further: nearly all actives have a fitted effect of over 40% in size; further: potency means the concentration at half of the fitted maximal effect
- reportedConditions: PGC/ERR reporter cells viability, CellTiter-Fluor, 17.5 h; series mostly up to 92.4 µM
Results filed as inconclusive are left out. Activity calls are given as the source filed them. Calls come from the whole dose curve; as a rule, active = well fitted cell-killing curve with a large enough effect in the repeat runs (not every such curve was filed as active); inconclusive = weak or mixed curves, or effect the other way; inactive = no such curve, though single readings can be large or run the other way.
measurementName: Potency

compound=CCCSP(=O)(OCC)SCCC measurementname=Potency valueobserved=inactive
compound="COc1cc(N)c(Cl)cc1C(=O)NC1CN2CCC1CC2 (stereo not given)" measurementname=Potency valueobserved=inactive
compound=CC(C)(c1ccc(O)c(-c2ccccc2)c1)c1ccc(O)c(-c2ccccc2)c1 measurementname=Potency valueobserved="54.5 µM (active)"
compound="CC(C)(C)C(O)C(Oc1ccc(-c2ccccc2)cc1)n1cncn1 (stereo not given)" measurementname=Potency valueobserved=inactive
compound=C[C@]12CC[C@@H]3c4ccc(OC(=O)N(CCCl)CCCl)cc4CC[C@H]3[C@@H]1CC[C@@H]2O measurementname=Potency valueobserved=inactive
compound=CCS(=O)(=O)c1cccnc1S(=O)(=O)NC(=O)Nc1nc(OC)cc(OC)n1 measurementname=Potency valueobserved=inactive
compound=Nc1ccccc1C(=O)Oc1ccc2ccccc2c1 measurementname=Potency valueobserved=inactive
compound=FC(F)(F)c1cccc(C2=CCN(CCc3ccc4ccccc4c3)CC2)c1 measurementname=Potency valueobserved=inactive
compound=CC(=O)C(Cl)(Cl)Cl measurementname=Potency valueobserved="23.5 µM (active)"
compound="Clc1ccc(CSC(Cn2ccnc2)c2ccc(Cl)cc2Cl)cc1 (stereo not given)" measurementname=Potency valueobserved="29.8 µM (active)"
compound=Nc1ccc(Sc2ccc(N)cc2)cc1 measurementname=Potency valueobserved=inactive
compound=CN(C)[C@@H]1C(=O)C(C(N)=O)=C(O)[C@@]2(O)C(=O)C3=C(O)c4c(O)ccc(Cl)c4[C@@](C)(O)[C@H]3C[C@@H]12 measurementname=Potency valueobserved=inactive
compound="CC1(C)C(/C=C(\\Cl)C(F)(F)F)C1C(=O)OC(C#N)c1cccc(Oc2ccccc2)c1 (stereo not given)" measurementname=Potency valueobserved=inactive
compound=Oc1ccc2ccc3cccc4ccc1c2c34 measurementname=Potency valueobserved=inactive
compound=N#Cc1c(-c2ccc(Cl)cc2)[nH]c(C(F)(F)F)c1Br measurementname=Potency valueobserved="1.54 µM (active)"
compound=Clc1ccc(-c2ccccc2)cc1 measurementname=Potency valueobserved=inactive
compound=O=[N+]([O-])c1ccc(Oc2ccc(C(F)(F)F)cc2[N+](=O)[O-])cc1 measurementname=Potency valueobserved=inactive
compound=Oc1ccccc1Br measurementname=Potency valueobserved=inactive
compound=CS(=O)(=O)c1ccc(C(=O)C2C(=O)CCCC2=O)c([N+](=O)[O-])c1 measurementname=Potency valueobserved=inactive
compound=Cc1ccc(C(=O)Cl)cc1 measurementname=Potency valueobserved=inactive
compound=COc1cccc(C(=O)CCN[C@@H](C)[C@H](O)c2ccccc2)c1 measurementname=Potency valueobserved=inactive
compound=CCN(CC)C(=S)[S-].CCN(CC)C(=S)[S-].[Zn+2] measurementname=Potency valueobserved="2.41 µM (active)"
compound=CN(C)C1CSSSC1 measurementname=Potency valueobserved=inactive
compound=CCCCCCCCCBr measurementname=Potency valueobserved=inactive
compound="CCC(C)c1cc(C(C)(C)C)cc(-n2nc3ccccc3n2)c1O (stereo not given)" measurementname=Potency valueobserved=inactive
compound=Cc1ccc(CCl)cc1 measurementname=Potency valueobserved=inactive
compound=CCCCCCCCCCCCCCCCCCn1cc[n+](C)c1 measurementname=Potency valueobserved="30.5 µM (active)"
compound="ClC1=C(Cl)C2(Cl)C3C(Cl)C(Cl)CC3C1(Cl)C2(Cl)Cl (stereo not given)" measurementname=Potency valueobserved="61.1 µM (active)"
compound=O=C(CCl)C(Cl)Cl measurementname=Potency valueobserved="24.6 µM (active)"
compound=Clc1ccc(-c2ccc(Cl)c(Cl)c2Cl)c(Cl)c1Cl measurementname=Potency valueobserved=inactive
compound=CC(C)[C@H](C(=O)O[C@H](C#N)c1cccc(Oc2ccccc2)c1)c1ccc(Cl)cc1 measurementname=Potency valueobserved=inactive
compound="OC(Cc1ccccc1Cl)(Cn1cncn1)C1(Cl)CC1 (stereo not given)" measurementname=Potency valueobserved=inactive
compound=CN(CCCC(=O)c1cccnc1)N=O measurementname=Potency valueobserved=inactive
compound=ClCCN1CCOCC1 measurementname=Potency valueobserved=inactive
compound="CC(C)(COCC1CO1)COCC1CO1 (stereo not given)" measurementname=Potency valueobserved=inactive
compound=CC(=O)O[C@H]1CC[C@@]2(C)C(=CC[C@@H]3[C@@H]2CC[C@]2(C)C(=O)CC[C@@H]32)C1 measurementname=Potency valueobserved=inactive
compound=N#C/C=C/C#N measurementname=Potency valueobserved=inactive
compound=O=c1oc2ccccc2c(O)c1Cc1c(O)c2ccccc2oc1=O measurementname=Potency valueobserved=inactive
compound=ClC(Cl)=C(c1ccc(Cl)cc1)c1ccc(Cl)cc1 measurementname=Potency valueobserved=inactive
compound=O=C(NC(=O)c1c(F)cccc1F)Nc1cc(Cl)c(OC(F)(F)C(F)F)c(Cl)c1 measurementname=Potency valueobserved=inactive
compound="Clc1ccc(C(c2ccccc2Cl)C(Cl)(Cl)Cl)cc1 (stereo not given)" measurementname=Potency valueobserved=inactive
compound=COP(=S)(OC)Oc1cc(Cl)c(Br)cc1Cl measurementname=Potency valueobserved=inactive
compound=Nc1c(Oc2ccccc2)cc(O)c2c1C(=O)c1ccccc1C2=O measurementname=Potency valueobserved=inactive
compound="COC(=O)N(C(=O)N1COC2(C(=O)OC)Cc3cc(Cl)ccc3C2=N1)c1ccc(OC(F)(F)F)cc1 (stereo not given)" measurementname=Potency valueobserved=inactive
compound="CC(C)[C@H](C(=O)OC(C#N)c1cccc(Oc2ccccc2)c1)c1ccc(OC(F)F)cc1 (stereo not given in full)" measurementname=Potency valueobserved=inactive
